Tested on: hTERT-HMEC
experiment: percentage of EdU-negative (G0-arrested) nuclei per well, 72 h; higher = more G0 arrest
experimental context: protein concentration 0.225 µM; reference: sequence is the full UniProt precursor, the tested protein was the secreted form or ectodomain
measure name: percentage of EdU-negative (%)

sequence data | experimental value
MNGFASLLRRNQFILLVLFLLQIQSLGLDIDSRPTAEVCATHTISPGPKGDDGEKGDPGEEGKHGKVGRMGPKGIKGELGDMGDQGNIGKTGPIGKKGDKGEKGLLGIPGEKGKAGTVCDCGRYRKFVGQLDISIARLKTSMKFVKNVIAGIRETEEKFYYIVQEEKNYRESLTHCRIRGGMLAMPKDEAANTLIADYVAKSGFFRVFIGVNDLEREGQYMFTDNTPLQNYSNWNEGEPSDPYGHEDCVEMLSSGRWNDTECHLTMYFVCEFIKKKK [Q9Y6Z7] | 7.17
MARYMLLLLLAVWVLTGELWPGAEARAAPYGVRLCGREFIRAVIFTCGGSRWRRSDILAHEAMGDTFPDADADEDSLAGELDEAMGSSEWLALTKSPQAFYRGRPSWQGTPGVLRGSRDVLAGLSSSCCKWGCSKSEISSLC [Q8WXF3] | 5.85
MKLLFPIFASLMLQYQVNTEFIGLRRCLMGLGRCRDHCNVDEKEIQKCKMKKCCVGPKVVKLIKNYLQYGTPNVLNEDVQEMLKPAKNSSAVIQRKHILSVLPQIKSTSFFANTNFVIIPNATPMNSATISTMTPGQITYTATSTKSNTKESRDSATASPPPAPPPPNILPTPSLELEEAEEQ [Q9H1M3] | 4.66
MSFPCKFVASFLLIFNVSSKGAVSKEITNALETWGALGQDINLDIPSFQMSDDIDDIKWEKTSDKKKIAQFRKEKETFKEKDTYKLFKNGTLKIKHLKTDDQDIYKVSIYDTKGKNVLEKIFDLKIQERVSKPKISWTCINTTLTCEVMNGTDPELNLYQDGKHLKLSQRVITHKWTTSLSAKFKCTAGNKVSKESSVEPVSCPEKGLDIYLIIGICGGGSLLMVFVALLVFYITKRKKQRSRRNDEELETRAHRVATEERGRKPHQIPASTPQNPATSQHPPPPPGHRSQAPSHRPPPPGHRVQHQPQKRPPAPSGTQVHQQKGPPLPRPRVQPKPPHGAAENSLSPSSN | 5.92
MRTADREARPGLPSLLLLLLAGAGLSAASPPAAPRFNVSLDSVPELRWLPVLRHYDLDLVRAAMAQVIGDRVPKWVHVLIGKVVLELERFLPQPFTGEIRGMCDFMNLSLADCLLVNLAYESSVFCTSIVAQDSRGHIYHGRNLDYPFGNVLRKLTVDVQFLKNGQIAFTGTTFIGYVGLWTGQSPHKFTVSGDERDKGWWWENAIAALFRRHIPVSWLIRATLSESENFEAAVGKLAKTPLIADVYYIVGGTSPREGVVITRNRDGPADIWPLDPLNGAWFRVETNYDHWKPAPKEDDRRTSAIKALNATGQANLSLEALFQILSVVPVYNNFTIYTTVMSAGSPDKYMTRIRNPSRK | 7.81
MLLLPFQLLAVLFPGGNSEHAFQGPTSFHVIQTSSFTNSTWAQTQGSGWLDDLQIHGWDSDSGTAIFLKPWSKGNFSDKEVAELEEIFRVYIFGFAREVQDFAGDFQMKYPFEIQGIAGCELHSGGAIVSFLRGALGGLDFLSVKNASCVPSPEGGSRAQKFCALIIQYQGIMETVRILLYETCPRYLLGVLNAGKADLQRQVKPEAWLSSGPSPGPGRLQLVCHVSGFYPKPVWVMWMRGEQEQQGTQLGDILPNANWTWYLRATLDVADGEAAGLSCRVKHSSLEGQDIILYWRNPTSIGSIVLAIIVPSLLLLLCLALWYMRRRSYQNIP | 6.06

###

As shown below, each of these sequences has a reported percentage of EdU-negative value.
Tested on: hTERT-HMEC
experiment: percentage of EdU-negative (G0-arrested) nuclei per well, 72 h; higher = more G0 arrest
experimental context: protein concentration 0.225 µM; reference: sequence is the full UniProt precursor, the tested protein was the secreted form or ectodomain
measure name: percentage of EdU-negative

sequence data | experimental system | experimental value
MKFTTLLFLAAVAGALVYAEDASSDSTGADPAQEAGTSKPNEEISGPAEPASPPETTTTAQETSAAAVQGTAKVTSSRQELNPLKSIVEKSILLTEQALAKAGKGMHGGVPGGKQFIENGSEFAQKLLKKFSLLKPWA [Q9GZZ8] | hTERT-HMEC | 5.83%
MVAALLGGGGEARGGTVPGAWLCLMALLQLLGSAPRGSGLAHGRRLICWQALLQCQGEPECSYAYNQYAEACAPVLAQHGGGDAPGAAAAAFPASAASFSSRWRCPSHCISALIQLNHTRRGPALEDCDCAQDENCKSTKRAIEPCLPRTSGGGAGGPGAGGVMGCTEARRRCDRDSRCNLALSRYLTYCGKVFNGLRCTDECRTVIEDMLAMPKAALLNDCVCDGLERPICESVKENMARLCFGAELGNGPGSSGSDGGLDDYYDEDYDDEQRTGGAGGEQPLDDDDGVPHPPRPGSGAAASGGRGDLPYGPGRRSSGGGGRLAPRGAWTPLASILLLLLGPLF | hTERT-HMEC | 5.68%
MTPSRLPWLLSWVSATAWRAARSPLLCHSLRKTSSSQGGKSELVKQSLKKPKLPEGRFDAPEDSHLEKEPLEKFPDDVNPVTKEKGGPRGPEPTRYGDWERKGRCIDF [Q5VUM1] | hTERT-HMEC | 5.79%
MFSTKALLLAGLISTALAGPWANICAGKSSNEIRTCDRHGCGQYSAQRSQRPHQGVDILCSAGSTVYAPFTGMIVGQEKPYQNKNAINNGVRISGRGFCVKMFYIKPIKYKGPIKKGEKLGTLLPLQKVYPGIQSHVHIENCDSSDPTAYL | hTERT-HMEC | 7.53%
MRMLLALLALSAARPSASAESHWCYEVQAESSNYPCLVPVKWGGNCQKDRQSPINIVTTKAKVDKKLGRFFFSGYDKKQTWTVQNNGHSVMMLLENKASISGGGLPAPYQAKQLHLHWSDLPYKGSEHSLDGEHFAMEMHIVHEKEKGTSRNVKEAQDPEDEIAVLAFLVEAGTQVNEGFQPLVEALSNIPKPEMSTTMAESSLLDLLPKEEKLRHYFRYLGSLTTPTCDEKVVWTVFREPIQLHREQILAFSQKLYYDKEQTVSMKDNVRPLQQLGQRTVIKSGAPGRPLPWALPALLGPMLACLLAGFLR | hTERT-HMEC | 7.91%

###

Listed below: percentage of EdU-negative values for each entry.
Test system: hTERT-HMEC
experiment: percentage of EdU-negative (G0-arrested) nuclei per well, 72 h; higher = more G0 arrest
experimental context: protein concentration 0.0225 µM; reference: sequence is the full UniProt precursor, the tested protein was the secreted form or ectodomain
measure name: percentage of EdU-negative (%)

sequence data | experimental system | measure name | units | experimental value
MLSGRLVLGLVSMAGRVCLCQGSAGSGAIGPVEAAIRTKLEEALSPEVLELRNESGGHAVPPGSETHFRVAVVSSRFEGLSPLQRHRLVHAALAEELGGPVHALAIQARTPAQWRENSQLDTSPPCLGGNKKTLGTP [Q9Y3E2] | hTERT-HMEC | percentage of EdU-negative | % | 5.42
MRTLTILTAVLLVALQAKAEPLQAEDDPLQAKAYEADAQEQRGANDQDFAVSFAEDASSSLRALGSTRAFTCHCRRSCYSTEYSYGTCTVMGINHRFCCL | hTERT-HMEC | percentage of EdU-negative | % | 4.63
MALRRPPRLRLCARLPDFFLLLLFRGCLIGAVNLKSSNRTPVVQEFESVELSCIITDSQTSDPRIEWKKIQDEQTTYVFFDNKIQGDLAGRAEILGKTSLKIWNVTRRDSALYRCEVVARNDRKEIDEIVIELTVQVKPVTPVCRVPKAVPVGKMATLHCQESEGHPRPHYSWYRNDVPLPTDSRANPRFRNSSFHLNSETGTLVFTAVHKDDSGQYYCIASNDAGSARCEEQEMEVYDLNIGGIIGGVLVVLAVLALITLGICCAYRRGYFINNKQDGESYKNPGKPDGVNYIRTDEEGDFRHKSSFVI [Q9BX67] | hTERT-HMEC | percentage of EdU-negative | % | 4.86

###

System: hTERT-HMEC;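 further: secreted proteins added to cultured cells, EdU pulse at the end, nuclei found by Hoechst imaging, EdU status from nuclear versus surrounding ring intensity ratio, PBS as neutral control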
experiment: percentage of EdU-negative (G0-arrested) nuclei per well, 72 h; higher = more G0 arrest
experimental context: protein concentration 0.225 µM; reference: sequence is the full UniProt precursor, the tested protein was the secreted form or ectodomain
measure name: percentage of EdU-negative (%)

sequence data | experimental value
MGLWGQSVPTASSARAGRYPGARTASGTRPWLLDPKILKFVVFIVAVLLPVRVDSATIPRQDEVPQQTVAPQQQRRSLKEEECPAGSHRSEYTGACNPCTEGVDYTIASNNLPSCLLCTVCKSGQTNKSSCTTTRDTVCQCEKGSFQDKNSPEMCRTCRTGCPRGMVKVSNCTPRSDIKCKNESAASSTGKTPAAEETVTTILGMLASPYHYLIIIVVLVIILAVVVVGFSCRKKFISYLKGICSGGGGGPERVHRVLFRRRSCPSRVPGAEDNARNETLSNRYLQPTQVSEQEIQGQELAELTGVTVELPEEPQRLLEQAEAEGCQRRRLLVPVNDADSADISTLLDASATLEEGHAKETIQDQLVGSEKLFYEEDEAGSATSCL [Q9UBN6] | 4.86
MAAPVPWACCAVLAAAAAVVYAQRHSPQEAPHVQYERLGSDVTLPCGTANWDAAVTWRVNGTDLAPDLLNGSQLVLHGLELGHSGLYACFHRDSWHLRHQVLLHVGLPPREPVLSCRSNTYPKGFYCSWHLPTPTYIPNTFNVTVLHGSKIMVCEKDPALKNRCHIRYMHLFSTIKYKVSISVSNALGHNATAITFDEFTIVKPDPPENVVARPVPSNPRRLEVTWQTPSTWPDPESFPLKFFLRYRPLILDQWQHVELSDGTAHTITDAYAGKEYIIQVAAKDNEIGTWSDWSVAAHATPWTEEPRHLTTEAQAAETTTSTTSSLAPPPTTKICDPGELGSGGGPSAPFLVSVPITLALAAAAATASSLLI | 6.52
MDSYLLMWGLLTFIMVPGCQAELCDDDPPEIPHATFKAMAYKEGTMLNCECKRGFRRIKSGSLYMLCTGNSSHSSWDNQCQCTSSATRNTTKQVTPQPEEQKERKTTEMQSPMQPVDQASLPGHCREPPPWENEATERIYHFVVGQMVYYQCVQGYRALHRGPAESVCKMTHGKTRWTQPQLICTGEMETSQFPGEEKPQASPEGRPESETSCLVTTTDFQIQTEMAATMETSIFTTEYQVAVAGCVFLLISVLLLSGLTWQRRQRKSRRTI | 7.02
MPRCRWLSLILLTIPLALVARKDPKKNETGVLRKLKPVNASNANVKQCLWFAMQEYNKESEDKYVFLVVKTLQAQLQVTNLLEYLIDVEIARSDCRKPLSTNEICAIQENSKLKRKLSCSFLVGALPWNGEFTVMEKKCEDA | 4.56
MVPEEEPQDREKGLWWFQLKVWSMAVVSILLLSVCFTVSSVVPHNFMYSKTVKRLSKLREYQQYHPSLTCVMEGKDIEDWSCCPTPWTSFQSSCYFISTGMQSWTKSQKNCSVMGADLVVINTREEQDFIIQNLKRNSSYFLGLSDPGGRRHWQWVDQTPYNENVTFWHSGEPNNLDERCAIINFRSSEEWGWNDIHCHVPQKSICKMKKIYI [Q8WTT0] | 4.64
MEIPVPVQPSWLRRASAPLPGLSAPGRLFDQRFGEGLLEAELAALCPTTLAPYYLRAPSVALPVAQVPTDPGHFSVLLDVKHFSPEEIAVKVVGEHVEVHARHEERPDEHGFVAREFHRRYRLPPGVDPAAVTSALSPEGVLSIQAAPASAQAPPPAAAK | 5.53
MLWRQLIYWQLLALFFLPFCLCQDEYMESPQTGGLPPDCSKCCHGDYSFRGYQGPPGPPGPPGIPGNHGNNGNNGATGHEGAKGEKGDKGDLGPRGERGQHGPKGEKGYPGIPPELQIAFMASLATHFSNQNSGIIFSSVETNIGNFFDVMTGRFGAPVSGVYFFTFSMMKHEDVEEVYVYLMHNGNTVFSMYSYEMKGKSDTSSNHAVLKLAKGDEVWLRMGNGALHGDHQRFSTFAGFLLFETK [Q9BXJ4] | 5.41
